All values here come from the supplement of paper PMC10567573.

B1: KRT71 (parent)
chain: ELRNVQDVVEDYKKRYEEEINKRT

Variants of: B1
Experiment: protein stability index of a GFP-peptide fusion (GPS, HEK-293T) (PSI 1-6); higher = more stable;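 note: lentivirally expressed fusions sorted by FACS into six bins by GFP to DsRed ratio, PSI derived from sequencing read proportions per bin multiplied by bin number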
Details: c terminus: a fixed tail appended
Parameter protein stability index: see the listing below.
Answer with a number only.

>>> experimental_result("ELRNVQDVVEDYKKRYEEEINQRT [K22Q]")
4.35

Could you tell me which protein stability index is on file for ELRNVQDVVEDYKKRYEEEINKQT [R23Q] ?
3.83

Could you tell me which protein stability index is on file for ELRNVQDVVEDYKKRYEEEINTRT [K22T] ?
4.15

Could you tell me which protein stability index is on file for ELRNVQDVVEDYKKQYEEEINKRT [R15Q] ?
4.26

Could you tell me which protein stability index is on file for ELRNVYDVVEDYKKRYEEEINKRT [Q6Y] ?
3.18

Could you tell me which protein stability index is on file for ELRNVQDWVEDYKKRYEEEINKRT [V8W] ?
3.73

Could you tell me which protein stability index is on file for ELRNVQDVVEDYKKRYEEEINKVT [R23V] ?
3.93

Could you tell me which protein stability index is on file for ELRNVQDVVEDYKKRYEEEIFKRT [N21F] ?
3.55

Could you tell me which protein stability index is on file for ELRNVQDVVEDYKKRYEEEINART [K22A] ?
3.74

Could you tell me which protein stability index is on file for ELRCVQDVVEDYKKRYEEEINKRT [N4C] ?
3.9

Could you tell me which protein stability index is on file for ELRNVQDVVEDYKKRQEEEINKRT [Y16Q] ?
3.52

Could you tell me which protein stability index is on file for ELRNVQDVVTDYKKRYEEEINKRT [E10T] ?
4.45

Could you tell me which protein stability index is on file for ELRNVQDVYEDYKKRYEEEINKRT [V9Y] ?
3.62

Could you tell me which protein stability index is on file for ELRNVQDVVEDYKKRYEWEINKRT [E18W] ?
3.11

Could you tell me which protein stability index is on file for ELRNVQDAVEDYKKRYEEEINKRT [V8A] ?
3.37

Could you tell me which protein stability index is on file for ELRNVQDVVEDYKKRYEETINKRT [E19T] ?
4.16

Could you tell me which protein stability index is on file for ELRNVQDVVEDYKKRYEEEINKRA [T24A] ?
3.08

Could you tell me which protein stability index is on file for ELRNVQDVVHDYKKRYEEEINKRT [E10H] ?
3.71

Could you tell me which protein stability index is on file for ELRNVQDFVEDYKKRYEEEINKRT [V8F] ?
3.97

Could you tell me which protein stability index is on file for ELRPVQDVVEDYKKRYEEEINKRT [N4P] ?
4.67

Could you tell me which protein stability index is on file for ELRNVQDVVEDYKKRYEEGINKRT [E19G] ?
3.65

Could you tell me which protein stability index is on file for ELRNVQDVVEDDKKRYEEEINKRT [Y12D] ?
4.2

Could you tell me which protein stability index is on file for ELRNVQDVVEDYKHRYEEEINKRT [K14H] ?
4.26
